Tested on: K562
Assay: NCI tumour cell line growth inhibition, 48 h
The source made the active and inactive calls. Rule as the data show it: active = GI50 up to about 1.1 µM and inactive = higher.
Readout kind: GI50

| Compound | GI50 |
| --- | --- |
| CC(C)(C)OC(=O)N/N=C(/N)Cc1ccc(Cl)cc1 | 37.2 µM (inactive) |
| COc1ccc(C2CC(c3cc4c(C)c(C(=O)c5ccccc5)oc4cc3O)=Nc3ccccc3S2)cc1OC (stereo unspecified) | > 72.9 µM (inactive) |

Form field: reported GI50 of COc1ccc(N2C(=O)/C(=C\c3cccc(Oc4ccccc4)c3)S(=O)(=O)C2c2ccccc2)cc1 (stereo unspecified)
16.4 µM (inactive)

And what about the compound COC(=O)C(=O)C(C(=O)C(=O)Nc1ccc(F)cc1)c1nc2ccc([N+](=O)[O-])cc2nc1O (stereo unspecified) ?
> 100 µM (inactive)

And what about the compound "O=C1C(Nc2ccc(S(=O)(=O)Nc3cnc4ccccc4n3)cc2)=C/C(=N\c2ccc(S(=O)(=O)Nc3cnc4ccccc4n3)cc2)c2ccccc21" ?
28.1 µM (inactive)

And what about the compound N=C(N)NCCCC(NCc1c2ccccc2nc2ccccc12)C(=O)O (stereo unspecified) ?
10.1 µM (inactive)

And what about the compound NC(=O)C(NC=O)c1ccccc1 (stereo unspecified) ?
> 100 µM (inactive)

---

System: T47D
Assay: NCI tumour cell line growth inhibition, 48 h
Active and inactive are the calls of the source. Cut-off read from the data, not from the text of the source: active = GI50 up to about 1.1 µM and inactive = higher.
Readout kind: GI50

Before answering, review these 5 worked examples.
| Compound | Assay target | GI50 |
| --- | --- | --- |
| Nc1nc2ccc3ccccc3c2[nH]1 | T47D | > 10 µM (inactive) |
| Cc1cc(S(=O)(=O)Nc2n[nH]c(-c3ccc(Cl)cc3)n2)c(SSc2cc(Cl)c(C)cc2S(=O)(=O)Nc2n[nH]c(-c3ccc(Cl)cc3)n2)cc1Cl | T47D | 14.6 µM (inactive) |
| C=C1[C@H](OCC(C)C)[C@@H](OCC(C)C)[C@@H](O)C(C)(C)/C=C/[C@H](C)C(=O)[C@@]2(O)C[C@H](C)[C@H](O)[C@@H]2[C@H]1OCC(C)C | T47D | > 7.5 µM (inactive) |
| COc1cc(OC)c(C2c3cc4c(cc3OC(N3CCCC3)C2C)OCO4)c(OC)c1 (stereo not drawn) | T47D | 10.5 µM (inactive) |
| COC(=O)/C=C(/C(=O)OC)c1c(C)cc2c(C)cc(C)cc(C)c1-2 | T47D | 44.1 µM (inactive) |

# value lookup — system T47D, readout GI50, item "Cc1c(N2C(=O)/C(=C/c3ccc(N(CCC#N)CCC#N)cc3)N=C2c2ccccc2)c(=O)n(-c2ccccc2)n1C"
> 100 µM (inactive)

And what about the compound NC(CC(O)(c1ccccc1)c1ccccc1)c1ccccc1S (stereo not drawn) ?
16.8 µM (inactive)

And what about the compound "NCCCN(CCCCN(CCCN)Cc1ccc2ccccc2c1)Cc1ccc2ccccc2c1" ?
2.42 µM (inactive)

---

System: M14
Assay: NCI tumour cell line growth inhibition, 48 h
Activity calls are given as the source filed them. Rule as the data show it: active = GI50 up to about 1.1 µM and inactive = higher.
Parameter call: string, one of true = active, false = inactive

Examples with answers:
| Compound | Label |
| --- | --- |
| O=C1c2ccc(O)c(O)c2C(=O)c2c(O)ccc(O)c21 | false |
| O=C1CCCC/C1=C1\C(=O)Nc2cc(F)ccc21 | false |
| COc1ccccc1NC(=O)CC(=O)NNCC(=O)Nc1nc(-c2ccccc2)cs1 | false |
| Cn1c(=S)c2nc(SCc3cccnc3)[nH]c2n(C)c1=O | false |
| Cc1c2nc3ccccc3sc-2cc(=O)c1C | false |

Now consider a different compound.
Fill in: this test's call for "C/C(=N\NS(=O)(=O)c1ccccc1)c1ccc(Cl)c(Cl)c1" is ___
false
